# Tested on: CUG foci in primary DM1 patient myoblasts
# TEST DETAILS: Dual-cut screening: FISH staining of CUG RNA foci
# Format: cell-based, human
# EXPERIMENTAL CONTEXT: sgRNA pair; primary DM1 patient myoblasts; 3 μM DNA-PKi Compound 6 for 48 hours
EXPERIMENTAL READOUT: % of CUG foci free nuclei (DNA-PKi) (%)
Give bare numbers, in %.

Please review the entries below; each comes with its answer.
{"SUBSTANCE": "SluU62 + SluD100 (guide 1 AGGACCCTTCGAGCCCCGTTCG; guide 2 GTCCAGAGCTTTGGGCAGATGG; guide RNA; listed as DNA, chemistry not fully specified)", "NUMERIC VALUE": 88.35}
{"SUBSTANCE": "SluU10 + SluD48 (guide 1 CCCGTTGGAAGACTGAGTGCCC; guide 2 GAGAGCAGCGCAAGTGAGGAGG; guide RNA; listed as DNA, chemistry not fully specified)", "NUMERIC VALUE": 88.02}
{"SUBSTANCE": "SluU59 + SluD68 (guide 1 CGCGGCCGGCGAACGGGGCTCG; guide 2 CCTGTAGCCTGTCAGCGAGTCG; guide RNA; listed as DNA, chemistry not fully specified)", "NUMERIC VALUE": 89.37}
{"SUBSTANCE": "SluU06 + SluD56 (guide 1 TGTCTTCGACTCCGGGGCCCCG; guide 2 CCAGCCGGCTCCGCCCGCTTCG; guide RNA; listed as DNA, chemistry not fully specified)", "NUMERIC VALUE": 85.13}
{"SUBSTANCE": "SluU64 + SluD73 (guide 1 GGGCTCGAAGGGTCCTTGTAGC; guide 2 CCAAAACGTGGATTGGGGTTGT; guide RNA; listed as DNA, chemistry not fully specified)", "NUMERIC VALUE": 91.02}

Give % of CUG foci free nuclei (DNA-PKi) for each listed item.
1. SluU06 + SluD48 (guide 1 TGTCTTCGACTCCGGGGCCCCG; guide 2 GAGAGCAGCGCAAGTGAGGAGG; guide RNA; listed as DNA, chemistry not fully specified)
2. SluU10 + SluD68 (guide 1 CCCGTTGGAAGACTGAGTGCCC; guide 2 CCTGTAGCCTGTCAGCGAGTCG; guide RNA; listed as DNA, chemistry not fully specified)
3. SluU63 + SluD14 (guide 1 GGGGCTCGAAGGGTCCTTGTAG; guide 2 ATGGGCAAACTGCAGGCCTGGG; guide RNA; listed as DNA, chemistry not fully specified)
4. SluU63 + SluD18 (guide 1 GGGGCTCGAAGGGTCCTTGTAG; guide 2 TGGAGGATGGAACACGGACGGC; guide RNA; listed as DNA, chemistry not fully specified)
5. SluU08 + SluD14 (guide 1 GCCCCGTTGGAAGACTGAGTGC; guide 2 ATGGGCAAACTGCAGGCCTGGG; guide RNA; listed as DNA, chemistry not fully specified)

A.
1: 89.46; 2: 89.5; 3: 86; 4: 88.15; 5: 82.09

---

# Tested on: CAG foci in primary DM1 patient myoblasts
# TEST DETAILS: Single-cut screening: CAG foci staining
# Type: cell-based, human
# EXPERIMENTAL CONTEXT: single sgRNA, DNA-PKi treated
Answer each item with its documented % of CAG foci positive nuclei (DNA-PKi).

Give % of CAG foci positive nuclei (DNA-PKi) for each listed item.
1. CTCCACGCACCCCCACCTATCG (guide RNA; chemistry not fully specified) [SluD22]
2. CACTCAGTCTTCCAACGGGGCC (guide RNA; chemistry not fully specified) [SluU07]
3. CTTCGAgccccgttcgccggcc (guide RNA; as printed in the source, key not given here) [SluU61]
4. TCAGTGCATCCAAAACGTGGAT (guide RNA; chemistry not fully specified) [SluD76]
5. CCCTAGAACTGTCTTCGACTCC (guide RNA; chemistry not fully specified) [SluU03]
6. cgcggccggcgaacggggcTCG (guide RNA; as printed in the source, key not given here) [SluU59]
7. SluD101: downstream SluCas9 sgRNA, presumably SEQ ID NO 167; sequence not in the shown tables (guide AGTCCAGAGCTTTGGGCAGATG; listed as DNA, chemistry not fully specified)

A.
1: 1.54%; 2: 1.27%; 3: 1.46%; 4: 2.16%; 5: 2.04%; 6: 1.4%; 7: 2.93%

Give % of CAG foci positive nuclei (DNA-PKi) for each listed item.
1. GCCTGTCAGCGAGTCGGAGGAC (guide RNA; chemistry not fully specified) [SluD66]
2. GGGGTCTCAGTGCATCCAAAAC (guide RNA; chemistry not fully specified) [SluD78]
3. AGCGGTTGTGAACTGGCAGGCG (guide RNA; chemistry not fully specified) [SluU19]
4. ctccctccccggccGCTAGGGG (guide RNA; as printed in the source, key not given here) [SluU45]
5. GTCGGGGGTGGGGGTCCTAGGT (guide RNA; chemistry not fully specified) [SluD85]
6. CTTTTATTCGCGAGGGTCGGGG (guide RNA; chemistry not fully specified) [SluD93]
7. GGTCCTGTAGCCTGTCAGCGAG (guide RNA; chemistry not fully specified) [SluD69]

A.
1: 1.94%; 2: 1.36%; 3: 0.83%; 4: 2.36%; 5: 2.82%; 6: 3.58%; 7: 2.13%

Where these numbers come from: patent US20240173432A1
